# system tested: mutant integrin CD11bE320A/CD18 (Homo sapiens, UniProt P11215, E336A)
# Construct: expressed in transfected cells; host or cells: K562 (ATCC)
# Sequence (P11215 17-1152 E336A, one chain of several): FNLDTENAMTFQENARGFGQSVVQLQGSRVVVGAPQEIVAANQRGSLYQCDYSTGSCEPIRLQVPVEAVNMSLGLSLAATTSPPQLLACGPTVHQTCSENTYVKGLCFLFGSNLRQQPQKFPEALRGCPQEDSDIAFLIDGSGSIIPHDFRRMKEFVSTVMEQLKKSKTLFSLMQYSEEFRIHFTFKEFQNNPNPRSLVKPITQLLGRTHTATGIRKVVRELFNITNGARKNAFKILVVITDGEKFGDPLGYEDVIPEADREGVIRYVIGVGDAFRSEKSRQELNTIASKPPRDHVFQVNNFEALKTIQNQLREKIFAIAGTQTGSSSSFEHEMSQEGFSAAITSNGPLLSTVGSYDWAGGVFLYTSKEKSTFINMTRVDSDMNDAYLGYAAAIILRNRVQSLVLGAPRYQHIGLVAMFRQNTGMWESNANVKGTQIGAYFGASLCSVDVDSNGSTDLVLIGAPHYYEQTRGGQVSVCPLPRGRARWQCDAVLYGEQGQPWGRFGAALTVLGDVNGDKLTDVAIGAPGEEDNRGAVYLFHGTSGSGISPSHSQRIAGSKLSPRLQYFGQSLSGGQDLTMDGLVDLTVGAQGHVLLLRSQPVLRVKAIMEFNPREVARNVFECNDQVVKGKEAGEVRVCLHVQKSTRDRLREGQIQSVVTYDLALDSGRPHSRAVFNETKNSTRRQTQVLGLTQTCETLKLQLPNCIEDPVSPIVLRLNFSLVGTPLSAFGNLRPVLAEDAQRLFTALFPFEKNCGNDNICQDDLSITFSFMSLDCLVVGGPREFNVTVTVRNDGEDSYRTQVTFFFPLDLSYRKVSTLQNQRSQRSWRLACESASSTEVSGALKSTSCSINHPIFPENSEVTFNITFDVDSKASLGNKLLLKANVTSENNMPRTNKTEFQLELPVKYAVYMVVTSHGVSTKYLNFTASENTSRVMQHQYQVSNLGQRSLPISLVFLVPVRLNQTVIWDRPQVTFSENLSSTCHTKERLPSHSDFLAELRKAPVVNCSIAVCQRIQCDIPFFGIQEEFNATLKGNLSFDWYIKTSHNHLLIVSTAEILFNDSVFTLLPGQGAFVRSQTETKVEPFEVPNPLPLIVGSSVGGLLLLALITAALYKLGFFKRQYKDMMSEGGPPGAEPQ
# test: HTS cell adhesion assay, K562 E320A cells on immobilized fibrinogen
# Type: cell-based
# applied conditions: Table 3, adhesion to fibrinogen, five point dose-response
observation type: EC50 (µM)

COc1ccc2cc(/C=N/NC(=O)c3ccc(CN(c4ccc(C)c(C)c4)S(C)(=O)=O)cc3)c(Cl)nc2c1 [Compound 9564362]; 12.2
Cc1ccc(/C=c2\sc3nc(-c4ccccc4Br)nn3c2=O)o1 [Compound 1891182]; 6.86
Cc1ccccc1-c1ccc(Nc2ccc(N3CCOCC3)cc2)nn1 [Compound 646977]; 10.1

a = CS(=O)(=O)c1ccc2c(c1)SC1=NC(=O)/C(=C/c3ccco3)C(=N)N12 [Compound 1951731]
b = COC(=O)c1ccc2c(c1)N(Cc1nc(-c3cccc(C)c3)oc1C)C(=O)C1CCCN21 (centres unmarked) [Compound 5309602]
Look at a and b . Which one has the lower recorded EC50 number? // respond with label for picked entry
a
(a: 3.65 µM, b: 6.42 µM)

###

# system tested: mutant integrin CD11bE320A/CD18 (Homo sapiens, UniProt P11215, E336A)
# Construct: expressed in transfected cells; host or cells: K562 (ATCC)
# test: HTS cell adhesion assay, K562 E320A cells on immobilized fibrinogen
# Assay type: cell-based
# applied conditions: Table 3, adhesion to fibrinogen, five point dose-response
observation type: EC50 (µM)

Worked cases, EC50 given:
O=C(CNS(=O)(=O)c1cccc(Cl)c1)Nc1ccc(-c2nc3ccccc3s2)cc1; 9.23
Cc1cc(=O)oc2cc(OCC(=O)N/N=C/c3ccccc3[N+](=O)[O-])ccc12; 35.7
C=CCN(CC=C)S(=O)(=O)c1ccc(C(=O)Nc2sc3c(c2C(N)=O)CCCCC3)cc1; 8.78
Cc1cc(C=C2C(=O)N(C)C(=S)N(C)C2=O)c(C)n1C1CCCCC1; 171
COc1ccc(C(=O)Nc2ccc(N3CCN(c4ccc(OC)cc4)CC3)c(C#N)c2)cc1; 9.08
O=C(/C=C/c1ccco1)c1ccc(NC(=O)C23CC4CC(CC(C4)C2)C3)cc1; 10.3
Cc1ccc(NC(=O)COc2ccc(/C=C3/SC(=Nc4ccccc4)N(Cc4cccnc4)C3=O)cc2)cc1; 13.4
CCOC(=O)c1c(NC(=O)c2cc(-c3ccc(Cl)s3)nc3ccccc23)sc(C(N)=O)c1C; 6.56
CCS(=O)(=O)N1CCC(C(=O)NCCCN2CCCCCC2)CC1; 9.7
O=C(Nc1nc(-c2ccncc2)cs1)c1ccco1; 12.7

P = Cc1ccc(-c2ccc(/C=C(\C#N)C(=O)Nc3cc(C)nn3-c3ccccc3)o2)cc1
Q = CCc1nc(SCC(=O)Nc2nnc(CC)s2)c2c(C)c(C)sc2n1
# return whichever of P and Q has the smaller EC50 // return label of chosen record
P

I = N#Cc1ccc(CSc2nnc(NC(=O)C3CC(=O)N(c4ccc5c(c4)OCCO5)C3)s2)cc1 (stereo not shown)
II = CC(=O)c1ccc(NC(=O)c2ccc3nc(-c4ccco4)c(-c4ccco4)nc3c2)cc1
III = N#C/C(=C\c1ccc(OCc2ccccc2)cc1)C(=O)Nc1nc2c(s1)CCN(Cc1ccccc1)C2
IV = COc1ccc(-n2c(C)cc(C(=O)COC(=O)c3cc(NC(=O)c4cccs4)c(OC)c(OC)c3)c2C)cc1
V = COc1ccc(C2=Nc3nc(-c4ccccc4)cn3C(c3ccc(OC)cc3)C2)cc1 (stereo not shown)
Arrange the 5 entries by EC50 so the values rise. Quick reminder: the answer is the labels in the order asked.
II, I, III, IV, V
(II: 2.46 µM, I: 11.1 µM, III: 21.9 µM, IV: 62.5 µM, V: 999 µM)

I = COc1ccc(-c2nn(C)c(=O)c3ccccc23)cc1NC(=O)Cn1nc(C)c2ccccc2c1=O
II = Cc1nn2c(-c3cccc(NC(=O)CSc4nc5ccccc5o4)c3)nnc2c2ccccc12
III = Nc1c(C(=O)Nc2cccc(Cl)c2Cl)sc2nc(-c3cccnc3)ccc12
IV = O=C(Nc1ccc(Cl)cc1)[C@@H]1[C@@H]2C(=O)N(c3ccc(Cl)cc3Cl)C(=O)[C@@H]2[C@H]2C=CC=NN21
Order the items by recorded EC50; the first position goes to the largest value. # output: labels, in the requested order
IV, I, II, III

###

# system tested: mutant integrin CD11bE320A/CD18 (Homo sapiens, UniProt P11215, E336A)
# Construct: expressed in transfected cells; host or cells: K562 (ATCC)
# test: HTS cell adhesion assay, K562 E320A cells on immobilized fibrinogen
# Format: cell-based
# applied conditions: Table 3, adhesion to fibrinogen, five point dose-response
pEC50: −log10 of the molar value.
observation type: pEC50

Take a look at these entries with their results.
C=CCn1c(SCC(=O)c2[nH]c(C)c(C(=O)OC)c2C)nc2scc(-c3ccc(OC)c(OC)c3)c2c1=O; 5.43
CC1CCc2c(sc(NC(=O)c3ccc(Cn4cc(Br)cn4)o3)c2C(N)=O)C1 (stereo not shown); 4.45
COc1ccc2c(c1)cc(C)c1nnc(SCC(=O)N(C)c3nc(-c4ccccc4)cs3)n12; 5.03
CCOC(=O)Cc1csc(NC(=O)c2sc3nc4c(C)cc(C)cc4cc3c2N)n1; 5.29
CSCCOC(=O)c1[nH]c2c(c1C)C(=O)CC(c1ccco1)C2 (stereo not shown); 4.98

1 = Cc1ccc2nsnc2c1NC(=O)c1ccc(-c2cc(Cl)ccc2Cl)o1
2 = O=C(Cc1cccs1)Nc1nnc(SCc2cccc3ccccc23)s1
3 = COc1ccc(N=c2oc3ccc(OC)cc3cc2-c2nc3ccccc3[nH]2)cc1
I would appreciate it if you could sort these 3 compounds by pEC50, starting from the smallest number. Your answer should be the labels, listed in the requested order.
3, 2, 1
(3: 4.72, 2: 5.09, 1: 5.57)

###

# system tested: integrin CD11c/CD18 (Homo sapiens)
# Construct: expressed in transfected cells; host or cells: K562 (ATCC)
# Sequence (P20702 with tags, fused parts or gaps): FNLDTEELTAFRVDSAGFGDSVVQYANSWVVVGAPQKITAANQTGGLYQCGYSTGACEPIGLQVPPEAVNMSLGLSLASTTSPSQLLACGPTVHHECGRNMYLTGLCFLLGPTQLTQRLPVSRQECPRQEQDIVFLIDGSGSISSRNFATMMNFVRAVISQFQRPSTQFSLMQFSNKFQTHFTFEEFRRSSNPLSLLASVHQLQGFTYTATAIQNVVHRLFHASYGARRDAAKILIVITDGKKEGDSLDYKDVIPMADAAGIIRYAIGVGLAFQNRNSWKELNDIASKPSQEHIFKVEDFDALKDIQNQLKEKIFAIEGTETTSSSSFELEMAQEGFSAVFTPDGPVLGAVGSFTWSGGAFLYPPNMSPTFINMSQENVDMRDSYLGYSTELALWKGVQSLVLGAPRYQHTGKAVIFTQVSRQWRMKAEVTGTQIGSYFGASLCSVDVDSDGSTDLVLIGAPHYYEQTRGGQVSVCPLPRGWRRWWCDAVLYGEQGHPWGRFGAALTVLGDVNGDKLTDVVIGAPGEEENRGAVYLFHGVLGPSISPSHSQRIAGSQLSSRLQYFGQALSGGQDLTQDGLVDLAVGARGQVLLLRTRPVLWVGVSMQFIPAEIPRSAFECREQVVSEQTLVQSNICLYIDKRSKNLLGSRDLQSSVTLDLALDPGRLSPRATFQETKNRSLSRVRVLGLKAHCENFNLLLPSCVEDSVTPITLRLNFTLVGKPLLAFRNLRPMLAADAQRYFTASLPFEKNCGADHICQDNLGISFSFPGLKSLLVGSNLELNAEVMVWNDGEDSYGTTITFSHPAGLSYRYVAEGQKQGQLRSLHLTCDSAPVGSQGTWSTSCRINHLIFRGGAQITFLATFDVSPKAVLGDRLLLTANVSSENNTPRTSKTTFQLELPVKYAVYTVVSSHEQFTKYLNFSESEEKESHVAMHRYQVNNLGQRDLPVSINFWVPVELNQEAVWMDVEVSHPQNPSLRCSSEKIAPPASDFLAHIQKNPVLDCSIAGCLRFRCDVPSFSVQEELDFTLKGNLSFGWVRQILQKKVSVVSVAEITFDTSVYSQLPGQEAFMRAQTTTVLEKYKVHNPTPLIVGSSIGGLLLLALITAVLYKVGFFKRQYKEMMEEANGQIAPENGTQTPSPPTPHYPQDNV
# Sequence (P05107 23-769 partner): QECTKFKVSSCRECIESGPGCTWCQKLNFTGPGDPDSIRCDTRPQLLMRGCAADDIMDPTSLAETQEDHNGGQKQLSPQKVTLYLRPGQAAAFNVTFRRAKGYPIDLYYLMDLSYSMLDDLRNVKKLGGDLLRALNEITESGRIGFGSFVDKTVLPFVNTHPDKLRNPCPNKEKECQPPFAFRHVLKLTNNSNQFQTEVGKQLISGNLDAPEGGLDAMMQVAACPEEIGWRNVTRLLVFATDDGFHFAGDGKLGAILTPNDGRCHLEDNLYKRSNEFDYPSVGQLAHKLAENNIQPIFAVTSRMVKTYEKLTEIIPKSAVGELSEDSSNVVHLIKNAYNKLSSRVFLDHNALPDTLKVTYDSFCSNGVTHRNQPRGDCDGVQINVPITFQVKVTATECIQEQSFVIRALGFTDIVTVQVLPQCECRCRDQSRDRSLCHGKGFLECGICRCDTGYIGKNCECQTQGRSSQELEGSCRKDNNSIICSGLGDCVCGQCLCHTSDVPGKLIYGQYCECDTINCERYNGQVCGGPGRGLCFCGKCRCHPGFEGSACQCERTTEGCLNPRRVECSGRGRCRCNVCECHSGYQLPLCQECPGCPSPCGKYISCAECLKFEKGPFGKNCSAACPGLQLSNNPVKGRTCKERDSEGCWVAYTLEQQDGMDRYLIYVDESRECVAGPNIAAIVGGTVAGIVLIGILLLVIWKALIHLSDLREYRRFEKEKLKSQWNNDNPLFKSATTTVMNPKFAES
# test: HTS cell adhesion assay, K562 CD11c/CD18 cells on immobilized fibrinogen
# Format: cell-based
# Protocol: K562 cells stably expressing CD11c/CD18 (K562 CD11c/CD18) were generated similarly. Mutant CD11bE320A has been described previously. […] The cells were fixed with 37% formaldehyde in a small volume and the plates were kept inverted for 1 h. […] Next, the cells were fluorescently labeled with DAPI (0.5 μM final in TBS with 0.1% Triton X-100) and the quantitated with “Opera High Content Screening System” (Perkin Elmer). […]
observation type: EC50 (nM)

These solved cases illustrate the format of a correct answer.
CC(C)c1nc2sc3c(SCC(=O)NCc4ccco4)ncnc3c2c2c1CCC2; 3780
O=c1c(-c2nc3ccccc3o2)c2oc3ccccc3n2c2ccccc12; 2630
COc1cc(/C=C2\SC(N)=NC2=O)ccc1OCC(=O)Nc1ccc(C)cc1; 6270

1 = CSc1nc(N(CCO)CCO)c2sc3nc(-c4ccco4)c4c(c3c2n1)CCC4
2 = Cc1ccc(-c2nc3ncccc3o2)cc1NC(=O)c1sc2ccccc2c1Cl
For the pair 1 and 2 , which member has the lower EC50 number? Please reply using the label of the selected record.
1
(1: 2630 nM, 2: 5390 nM)

1 = CCc1nnc(NC(=O)c2sc3nc4c(cc3c2N)CCCCCC4)s1
2 = CCOC(=O)Cc1csc(NC(=O)c2sc3nc4c(C)cc(C)cc4cc3c2N)n1
3 = COC(=O)c1[nH]c2ccccc2c1NC(=O)CN1CCCc2ccccc21
Please list these compounds in decreasing order of EC50. Write the labels, ordered according to the request.
1, 2, 3
(1: 3010 nM, 2: 1990 nM, 3: 621 nM)

1 = CCOC(=O)N1CCC(NC(=O)c2ccc3c(c2)sc2nc(-c4ccc(OC)cc4)cn23)CC1
2 = Cc1onc(-c2c(Cl)cccc2Cl)c1C(=O)NC(=S)Nc1sc2c(c1C(N)=O)CCC(C)C2 (centres unmarked)
Could you tell me which of these two has the smaller EC50 figure? First: 1 Second: 2 // output: label of the selected item
1
(1: 2710 nM, 2: 6260 nM)

###

# system tested: mutant integrin CD11bE320A/CD18 (Homo sapiens, UniProt P11215, E336A)
# Construct: expressed in transfected cells; host or cells: K562 (ATCC)
# test: HTS cell adhesion assay, K562 E320A cells on immobilized fibrinogen
# Assay type: cell-based
# applied conditions: Table 3, adhesion to fibrinogen, five point dose-response
pEC50: −log10 of the molar value.
observation type: pEC50

See these solved cases before continuing.
O=C(CSc1nc2ccccc2c2nc3ccccc3n12)NCc1ccco1; 4.72
COc1ccc(/C=C2/C(=O)N(c3nc4ccccc4s3)N=C2CSc2ccc(Cl)cc2)cc1; 4.99
COc1ccc(N(CC(=O)N/N=C/c2ccc(-c3ccc([N+](=O)[O-])cc3)o2)S(=O)(=O)c2ccc(C)cc2)cc1; 4.89

a = O=C(COC(=O)c1c2c(nc3ccccc13)/C(=C/c1cccc([N+](=O)[O-])c1)CCC2)NC1CCS(=O)(=O)C1 (stereo not shown)
b = COc1cc(NC(=O)Cn2c(=O)n(-c3cccc(C)c3)c(=O)c3c(C)c(C)sc32)cc(OC)c1
In the pair a and b , the larger recorded pEC50 belongs to which? Write the label of whichever entry you select.
b
(b: 5.21, a: 5.01)

1 = COc1ccc(/C=N/NC(=O)C2c3ccccc3-c3ccccc32)cc1
2 = O=C(CC1Nc2ccccc2NC1=O)Nc1ccccc1 (stereo not shown)
Problem: Given the entries 1 and 2 , determine which has the lower reported pEC50. Label of pick, please.
2
(2: 4.74, 1: 4.98)
